Consider the following molecules; for each one, report its melting point.

Kindly indicate its recorded melting point. Item: COc1cc(NCc2cccs2)nc(-c2ccc(S(C)(=O)=O)cc2)n1 139 to 141 °C

Kindly indicate its recorded melting point. Item: COc1cc(NCc2ccccc2)nc(-c2ccc(S(C)(=O)=O)cc2)n1 133.4 to 134.6 °C

Kindly indicate its recorded melting point. Item: CS(=O)(=O)c1ccc(-c2nc(F)cc(NCc3cccs3)n2)cc1 130.4 to 131.4 °C

Kindly indicate its recorded melting point. Item: CS(=O)(=O)c1ccc(-c2nc(NCc3cccs3)cc(OCCF)n2)cc1 147.7 to 149.2 °C

Kindly indicate its recorded melting point. Item: CS(=O)(=O)c1ccc(-c2nc(O)cc(NCc3cccs3)n2)cc1 261.7 to 263.2 °C

Kindly indicate its recorded melting point. Item: CSc1cc(NCc2cccs2)nc(-c2ccc(S(C)(=O)=O)cc2)n1 159.1 to 160.4 °C

Kindly indicate its recorded melting point. Item: CS(=O)(=O)c1ccc(-c2nc(Cl)cc(NCc3cccs3)n2)cc1 170 to 171.2 °C

Kindly indicate its recorded melting point. Item: CS(=O)(=O)c1ccc(-c2nc(Cl)cc(NCc3ccccc3)n2)cc1 130.4 to 131.4 °C

Kindly indicate its recorded melting point. Item: CCOc1cc(NCc2cccs2)nc(-c2ccc(S(C)(=O)=O)cc2)n1 169.2 to 170.4 °C

Kindly indicate its recorded melting point. Item: CS(=O)(=O)c1ccc(-c2nc(O)cc(NCc3ccccc3)n2)cc1 287.9 to 289.2 °C

Kindly indicate its recorded melting point. Item: CCSc1cc(NCc2cccs2)nc(-c2ccc(S(C)(=O)=O)cc2)n1 160 to 162.1 °C
